test system: KM12 colon; assay: NCI tumour cell line growth inhibition, 48 h; in the data active = GI50 below about 0.43 µM; inactive = the rest
Possible outcomes: 1 for active, 0 for inactive

COMPOUND | CLASS_LABEL
COc1ccc(C(=O)N2c3ccccc3Sc3ccccc32)c(C(F)(F)F)c1 | 1
NC(=O)c1ccc(C2C3=C(CCCC3=O)OC3=C2C(=O)c2ccccc2C3=O)cc1 (stereo not given) | 0
C[C@]12CC[C@@H]3c4ccc(O)cc4C(O)C[C@H]3[C@@H]1CCC2=O (stereo not given in full) | 0
Cn1cc(CNCC2CCN(c3ncc(C(=O)NO)cn3)CC2)c2ccccc21 | 1
CCCCCCN(CCCCCC)CC(O)c1ccc2c3c(cccc13)CC2 (stereo not given) | 0
COc1ccc(-c2cn[nH]c2-c2cc(OC)c3c(c2)OCCO3)cc1 | 1
COc1cc2nc(-c3ccc(C(F)(F)F)cc3)cc(OCCCN3CCCCC3)c2cc1OC | 0
COc1cc(S(=O)(=O)Nc2ccc(C3=NNC(c4ccccc4)C3)cc2)ccc1F (stereo not given) | 0
O=[N+]([O-])c1ccc2c(c1)[O][Sn][O]2 | 0
CN(C)C(=O)O[C@@H]1CN[C@@H](C#Cc2cc3ncnc(Nc4ccc(OCc5cccc(F)c5)c(Cl)c4)c3s2)C1 | 0

* * *

tested on: NCI-H522 lung; test: NCI tumour cell line growth inhibition, 48 h
Where a SMILES comes first, the peptide text is derived from it. The star is where a group is joined. Boc = CC(C)(C)OC(=O)*; OBn = c1ccc(CO*)cc1
TGI listing for selected compounds.
RECORDED_ENDPOINT: TGI (µM)

COMPOUND | RECORDED_ENDPOINT | U | QUALIFYING_SIGN | OBS_VALUE
CC(=O)Oc1ccc(C2COc3cc(OC(C)=O)c(OC(C)=O)cc3C2)cc1 (stereo not drawn) | TGI | µM | = | 7.78
COC(=O)C1=C(CS(=O)c2ccccc2[N+](=O)[O-])ON(C)C1c1ccccc1 (stereo not drawn) | TGI | µM | = | 38
CCOC(=O)C(CS)NC(=O)CCCCCCCC(=O)NC(CS)C(=O)OCC (stereo not drawn) | TGI | µM | > | 100
CC(C)Oc1cc(O)c2c(c1)OCC=C2CCC(=O)O | TGI | µM | = | 59.3
C[C@]12CC[C@H](O)CC1=CC[C@@H]1[C@@H]2CC[C@]2(C)/C(=N/OCCN3CCCC3)CC[C@@H]12 | TGI | µM | = | 25.7
CC1(C)Oc2ccc(NC(=O)CCC(N)C(=O)O)cc2O1 (stereo not drawn) | TGI | µM | > | 100
Cc1cc(=O)oc2cc(O)ccc12 | TGI | µM | > | 100
CCN(CC)C1CC(n2cc(C)c(=O)[nH]c2=O)OC1CO (stereo not drawn) | TGI | µM | > | 100
S=c1nc(-c2cccnc2)[nH][nH]1 | TGI | µM | > | 1
Cn1c(=O)c2c(ncn2CN2CCN(Cn3cnc4c3c(=O)n(C)c(=O)n4C)CC2)n(C)c1=O | TGI | µM | > | 100
CC(C)(C)OC(=O)NC(Cc1ccccc1)C(=O)NC(Cc1ccccc1)C(=O)NCC(=O)OCc1ccccc1 (stereo not drawn) (Boc-Phe-Phe-Gly-OBn; configuration not given here) | TGI | µM | = | 48.8
CN1C(=O)C(Cl)(C(Cl)(Cl)S(=O)(=O)O)C(=O)c2ccccc21 (stereo not drawn) | TGI | µM | > | 100
COc1cccc(-c2cc(=O)c3ccc(C)nc3[nH]2)c1 | TGI | µM | > | 100
COc1cc(C2S/C(=C/c3ccccc3)C(=O)N2c2ccc(Cl)c(Cl)c2)cc(OC)c1OC (stereo not drawn) | TGI | µM | = | 51.4
COc1ccc(CN2c3ccccc3CCc3ccccc32)cc1F | TGI | µM | > | 100
Cc1sc2ccccc2[n+]1CCC(=O)O | TGI | µM | > | 100
O=C1c2ccccc2-n2c1nc1ccccc1c2=O | TGI | µM | = | 64.3
BrC1(Br)C2/C=C\CCCCC21 (stereo not drawn) | TGI | µM | > | 100
COc1ccc(C(=O)N2c3ccccc3Sc3ccccc32)c(C(F)(F)F)c1 | TGI | µM | = | 14.5
C1=CC=C2NCCOCCNC3=CC=CC=CC3=NCCOCCN=C2C=C1 | TGI | µM | > | 100
COC(=O)CCC1=C(C)/C(=C/c2[nH]c(-c3ccc[nH]3)cc2OC)N=C1C | TGI | µM | = | 1.78
O=c1[nH]nc(Cc2ccccc2)n1-n1cnnc1 | TGI | µM | > | 100
COc1cc(S(=O)(=O)Nc2ccc(-c3csc(N4C(=O)CSC4c4ccccc4)n3)cc2)ccc1Cl (stereo not drawn) | TGI | µM | > | 100
CN(C)CCNc1ncnc2nc(-c3ccc4ccccc4c3)[nH]c12 | TGI | µM | > | 100
O=c1[nH]c2cc3[nH]c4ncccc4c(=O)c3cc2[nH]1 | TGI | µM | > | 10
CC1(COS(=O)(=O)OCC2(C)COS(=O)(=O)OC2)COS(=O)(=O)OC1 | TGI | µM | > | 100
COc1ccc(-c2cn[nH]c2-c2cc(OC)c3c(c2)OCCO3)cc1 | TGI | µM | = | 0.164
C[C@]12CC[C@@H]3c4ccc(OC(=O)c5ccccc5)cc4CC[C@H]3[C@@H]1CC[C@@H]2Oc1c2ccccc2nc2ccccc12 | TGI | µM | = | 46
Oc1ccccc1-c1nc2c3ccccc3c3ccccc3c2[nH]1 | TGI | µM | = | 10.3
C[C@]12CC[C@@H]3c4ccc(O)cc4C(O)C[C@H]3[C@@H]1CCC2=O (stereo partly drawn) | TGI | µM | > | 100
CC(=O)N1CCN(C23OC4(N5CCN(C(C)=O)CC5)C5C6CC(C7C6C4C72)C53)CC1 (stereo not drawn) | TGI | µM | > | 100
O=C1C2Cc3ccccc3CN2C(=O)N1CCN1CCCC1 (stereo not drawn) | TGI | µM | > | 100
CCCCCCN(CCCCCC)CC(O)c1ccc2c3c(cccc13)CC2 (stereo not drawn) | TGI | µM | = | 13.2
C[N+]1(C)C/C(=C\c2ccncc2)C(=O)/C(=C/c2ccncc2)C1 | TGI | µM | = | 42
Fc1cccc(Cl)c1/C=N\N=C1c2ccccc2-c2ccccc21 | TGI | µM | > | 100
CC1(C)C2CCC3(C2)CS(=O)(=O)N2OC231 (stereo not drawn) | TGI | µM | = | 26.9
Cc1c2cc[n+](C)cc2c(C)c2c1[nH]c1ccc(O)c(OCC(F)(F)F)c12 | TGI | µM | = | 3.55
